- target.system: D3 dopamine receptor (Homo sapiens)
- Sequence (P35462 whole entry): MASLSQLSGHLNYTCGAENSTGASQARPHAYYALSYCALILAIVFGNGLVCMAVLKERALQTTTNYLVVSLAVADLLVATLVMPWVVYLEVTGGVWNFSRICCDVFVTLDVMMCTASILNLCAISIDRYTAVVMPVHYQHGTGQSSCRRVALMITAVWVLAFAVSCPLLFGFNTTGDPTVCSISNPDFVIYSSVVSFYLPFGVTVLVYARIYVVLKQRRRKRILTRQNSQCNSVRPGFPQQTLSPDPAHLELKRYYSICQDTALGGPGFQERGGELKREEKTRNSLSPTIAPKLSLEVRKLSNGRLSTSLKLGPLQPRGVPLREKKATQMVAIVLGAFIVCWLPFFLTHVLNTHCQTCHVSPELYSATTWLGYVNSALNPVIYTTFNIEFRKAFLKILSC
- experiment: BRET-based G protein dissociation assay
- Assay type: cell-based
endpoint.name: pEC50
Notebook: values listed as pEC50 are -log10 of the concentration (mol/L).

Quick check: pEC50 of CCN(CC)C(=O)[C@@H]1C=C2c3cccc4[nH]c(Br)c(c34)C[C@H]2N(C)C1 ?
8.55

====

- target.system: Serotonin 2B receptor (5-HT2BR) (Homo sapiens, UniProt P41595)
- Construct: expressed in transfected cells; host or cells: HEK-293
- Sequence (P41595 whole entry): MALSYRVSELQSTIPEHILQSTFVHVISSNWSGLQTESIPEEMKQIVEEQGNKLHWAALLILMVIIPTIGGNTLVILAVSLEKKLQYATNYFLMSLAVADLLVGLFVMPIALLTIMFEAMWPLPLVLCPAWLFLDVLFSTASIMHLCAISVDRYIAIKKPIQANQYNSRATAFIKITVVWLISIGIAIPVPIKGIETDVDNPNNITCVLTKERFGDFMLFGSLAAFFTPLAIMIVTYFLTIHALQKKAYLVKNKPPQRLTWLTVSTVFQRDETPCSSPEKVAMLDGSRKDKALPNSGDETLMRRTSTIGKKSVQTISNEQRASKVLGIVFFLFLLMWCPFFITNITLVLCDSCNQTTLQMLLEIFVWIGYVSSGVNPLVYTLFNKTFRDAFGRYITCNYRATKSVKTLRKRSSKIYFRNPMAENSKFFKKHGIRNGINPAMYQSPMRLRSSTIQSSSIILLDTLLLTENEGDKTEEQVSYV
- experiment: Functional assay in HEK-293 cells (IP1)
- Format: cell-based
- Method: Neuro-receptor binding and functional effects of the “E559 polymorph” was examined by analyzing binding affinity [Ki (nM)], functional agonist activity [EC50 (nM)], and functional antagonist activity [IC50 (nM)] against a panel of key receptors in neurophysiological disorders. […] The measurement of binding affinity of the “E559 polymorph” is represented in TABLE XIII by Ki (nM) which was calculated as percent inhibition of the binding of a radioactively labeled reference ligand at each receptor. […]
endpoint.name: EC50

Bench note: what EC50 did CCN(CC)C(=O)[C@H]1C=C2c3cccc4[nH]c(Br)c(c34)C[C@H]2N(C)C1 [E558] show?
> 10 µM

Same thing, different compound: CCN(CC)C(=O)[C@@H]1C=C2c3cccc4[nH]c(Br)c(c34)C[C@H]2N(C)C1 [E559]
> 10 µM

====

- target.system: CHRM4 (M4 muscarinic receptor) (Homo sapiens, UniProt P08173)
- Sequence (P08173 1-479): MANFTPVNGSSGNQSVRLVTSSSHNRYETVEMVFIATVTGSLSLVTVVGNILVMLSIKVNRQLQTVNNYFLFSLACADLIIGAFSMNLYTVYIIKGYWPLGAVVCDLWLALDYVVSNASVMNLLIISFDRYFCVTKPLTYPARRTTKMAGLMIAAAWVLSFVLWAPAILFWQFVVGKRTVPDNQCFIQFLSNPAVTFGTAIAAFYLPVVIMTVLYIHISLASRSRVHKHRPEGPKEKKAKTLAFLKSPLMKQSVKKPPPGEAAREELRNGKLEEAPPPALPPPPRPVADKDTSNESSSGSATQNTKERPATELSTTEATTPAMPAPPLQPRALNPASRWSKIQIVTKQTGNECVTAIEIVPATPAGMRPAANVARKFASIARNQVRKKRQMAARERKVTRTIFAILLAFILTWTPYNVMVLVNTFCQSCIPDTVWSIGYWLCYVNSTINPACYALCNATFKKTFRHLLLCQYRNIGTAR
- experiment: BRET-based G protein dissociation assay
- Assay type: cell-based
endpoint.name: EC50
Please give the number followed by its unit.

Which EC50 is reported with CHRM4 (M4 muscarinic receptor) (Homo sapiens, UniProt P08173) for this entry: CCN(CC)C(=O)[C@@H]1C=C2c3cccc4[nH]c(Br)c(c34)C[C@H]2N(C)C1 [E559] ?
0.04 nM

====

- target.system: CHRM4 (M4 muscarinic receptor) (Homo sapiens)
- experiment: BRET-based G protein dissociation assay
- Type: cell-based
- measurement.parameters: agonist mode; read-out: EC50
endpoint.name: EC50 (nM)
Write down the numeric answer in nM and omit the unit.

Which EC50 value is on record for CCN(CC)C(=O)[C@@H]1C=C2c3cccc4[nH]cc(c34)C[C@H]2N(C)C1 [LSD, lysergic acid diethylamide, reference compound] ?
454

====

- target.system: UniProt P08172
- Sequence (P08172 whole entry): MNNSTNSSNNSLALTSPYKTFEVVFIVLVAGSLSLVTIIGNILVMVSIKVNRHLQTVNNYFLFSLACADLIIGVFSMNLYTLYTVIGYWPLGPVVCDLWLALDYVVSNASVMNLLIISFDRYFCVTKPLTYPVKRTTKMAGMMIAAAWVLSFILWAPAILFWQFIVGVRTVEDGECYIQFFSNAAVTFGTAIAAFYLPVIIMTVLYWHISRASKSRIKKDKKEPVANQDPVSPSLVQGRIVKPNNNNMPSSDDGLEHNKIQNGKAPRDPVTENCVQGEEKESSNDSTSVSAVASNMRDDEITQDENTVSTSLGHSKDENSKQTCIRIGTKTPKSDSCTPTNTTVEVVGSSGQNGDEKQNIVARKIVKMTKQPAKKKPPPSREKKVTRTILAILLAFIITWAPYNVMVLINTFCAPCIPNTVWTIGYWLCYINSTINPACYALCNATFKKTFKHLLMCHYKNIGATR
- experiment: BRET-based G protein dissociation assay
- Type: cell-based
- measurement.parameters: agonist mode; read-out: EC50
pEC50: −log10 of the molar value.
endpoint.name: pEC50

What reported pEC50 corresponds to CCN(CC)C(=O)[C@@H]1C=C2c3cccc4[nH]cc(c34)C[C@H]2N(C)C1 [LSD, lysergic acid diethylamide, reference compound] on UniProt P08172?
< 5.00

====

- target.system: D4 dopamine receptor (Homo sapiens)
- Sequence (P21917 whole entry): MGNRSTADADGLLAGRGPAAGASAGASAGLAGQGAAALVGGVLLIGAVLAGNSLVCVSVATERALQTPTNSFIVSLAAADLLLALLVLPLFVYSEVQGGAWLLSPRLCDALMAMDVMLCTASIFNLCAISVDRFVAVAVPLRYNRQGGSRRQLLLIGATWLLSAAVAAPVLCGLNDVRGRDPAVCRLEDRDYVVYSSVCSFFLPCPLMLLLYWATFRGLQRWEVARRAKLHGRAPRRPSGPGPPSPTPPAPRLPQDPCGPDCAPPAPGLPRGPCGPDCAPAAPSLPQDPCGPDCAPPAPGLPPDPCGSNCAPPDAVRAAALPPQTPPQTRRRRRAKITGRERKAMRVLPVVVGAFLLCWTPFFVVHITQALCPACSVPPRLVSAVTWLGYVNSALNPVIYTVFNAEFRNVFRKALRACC
- experiment: BRET-based G protein dissociation assay
- Type: cell-based
- measurement.parameters: agonist mode; read-out: EC50
endpoint.name: EC50 (nM)
Provide the reading as a plain figure in nM.

Recorded EC50 of CCN(CC)C(=O)[C@@H]1C=C2c3cccc4[nH]cc(c34)C[C@H]2N(C)C1 [LSD, lysergic acid diethylamide, reference compound] , please.
4.03

====

- target.system: Alpha 2B adrenergic receptor (Homo sapiens)
- Sequence (P18089 1-450): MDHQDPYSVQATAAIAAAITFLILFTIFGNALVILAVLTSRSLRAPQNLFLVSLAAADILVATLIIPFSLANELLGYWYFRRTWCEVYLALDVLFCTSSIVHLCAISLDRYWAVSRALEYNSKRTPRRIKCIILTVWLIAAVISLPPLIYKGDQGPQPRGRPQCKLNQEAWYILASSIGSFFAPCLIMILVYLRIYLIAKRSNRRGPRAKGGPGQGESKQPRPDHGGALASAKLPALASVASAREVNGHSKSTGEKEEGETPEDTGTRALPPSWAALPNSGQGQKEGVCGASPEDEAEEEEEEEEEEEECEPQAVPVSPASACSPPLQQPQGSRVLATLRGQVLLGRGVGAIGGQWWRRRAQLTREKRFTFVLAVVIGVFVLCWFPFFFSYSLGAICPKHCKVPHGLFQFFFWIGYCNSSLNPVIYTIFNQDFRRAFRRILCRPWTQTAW
- experiment: Functional assay in HEK-293 cells (cAMP)
endpoint.name: EC50

Which EC50 value belongs to CCN(CC)C(=O)[C@@H]1C=C2c3cccc4[nH]c(Br)c(c34)C[C@H]2N(C)C1 [E559] ?
> 10 µM

====

- target.system: Serotonin 2B receptor (5-HT2BR) (Homo sapiens, UniProt P41595)
- Construct: expressed in transfected cells; host or cells: HEK-293
- experiment: Functional assay in HEK-293 cells (IP1)
- Assay type: cell-based
endpoint.name: pIC50
pIC50 is defined as minus the log10 of a concentration measured in mol/L.

Could you tell me which pIC50 is on file for CCN(CC)C(=O)[C@@H]1C=C2c3cccc4[nH]c(Br)c(c34)C[C@H]2N(C)C1 ?
7.01

====

- target.system: D5 dopamine receptor (Homo sapiens)
- Sequence (P21918 whole entry): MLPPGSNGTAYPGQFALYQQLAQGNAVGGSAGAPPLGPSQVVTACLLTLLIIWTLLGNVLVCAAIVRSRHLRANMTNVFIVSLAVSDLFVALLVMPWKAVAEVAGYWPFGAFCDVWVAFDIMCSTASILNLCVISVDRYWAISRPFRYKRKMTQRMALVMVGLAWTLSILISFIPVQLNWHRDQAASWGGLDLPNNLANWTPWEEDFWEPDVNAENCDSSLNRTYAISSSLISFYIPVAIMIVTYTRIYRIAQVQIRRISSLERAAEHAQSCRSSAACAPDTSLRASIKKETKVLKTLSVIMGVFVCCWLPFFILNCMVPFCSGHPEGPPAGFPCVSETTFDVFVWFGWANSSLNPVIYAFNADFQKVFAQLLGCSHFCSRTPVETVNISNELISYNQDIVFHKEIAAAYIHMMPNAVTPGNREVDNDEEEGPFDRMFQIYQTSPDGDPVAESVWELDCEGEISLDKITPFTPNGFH
- experiment: BRET-based G protein dissociation assay
- Format: cell-based
- measurement.parameters: agonist mode; read-out: EC50
endpoint.name: EC50 (nM)
The reply should contain only the number, in nM.

# query: EC50 of entry CCN(CC)C(=O)[C@@H]1C=C2c3cccc4[nH]cc(c34)C[C@H]2N(C)C1 [LSD, lysergic acid diethylamide, reference compound]
166

====

- target.system: D1 dopamine receptor (Homo sapiens)
- Sequence (P21728 whole entry): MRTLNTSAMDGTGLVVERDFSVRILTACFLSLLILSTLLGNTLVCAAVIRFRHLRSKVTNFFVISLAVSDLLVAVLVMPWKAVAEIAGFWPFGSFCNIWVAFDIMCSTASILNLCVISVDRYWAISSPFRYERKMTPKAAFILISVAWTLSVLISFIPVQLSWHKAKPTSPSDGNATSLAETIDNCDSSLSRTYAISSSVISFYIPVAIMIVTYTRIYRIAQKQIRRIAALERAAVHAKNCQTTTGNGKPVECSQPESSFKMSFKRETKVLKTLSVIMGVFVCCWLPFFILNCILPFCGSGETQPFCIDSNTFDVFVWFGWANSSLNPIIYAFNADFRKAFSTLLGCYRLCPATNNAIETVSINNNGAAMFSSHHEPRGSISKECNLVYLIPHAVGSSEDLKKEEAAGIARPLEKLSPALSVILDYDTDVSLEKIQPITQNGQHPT
- experiment: BRET-based G protein dissociation assay
- Format: cell-based
Could you please report measured EC50 for the items listed next?
Field: numeric (µM). Do not append units.

For D1 dopamine receptor (Homo sapiens), provide EC50 of CCN(CC)C(=O)[C@@H]1C=C2c3cccc4[nH]c(Br)c(c34)C[C@H]2N(C)C1 please.
0.00012

What about CCN(CC)C(=O)[C@@H]1C=C2c3cccc4[nH]cc(c34)C[C@H]2N(C)C1 [LSD, lysergic acid diethylamide, reference compound] ?
0.108

====

- target.system: D2 dopamine receptor (Homo sapiens)
- Sequence (P14416 whole entry): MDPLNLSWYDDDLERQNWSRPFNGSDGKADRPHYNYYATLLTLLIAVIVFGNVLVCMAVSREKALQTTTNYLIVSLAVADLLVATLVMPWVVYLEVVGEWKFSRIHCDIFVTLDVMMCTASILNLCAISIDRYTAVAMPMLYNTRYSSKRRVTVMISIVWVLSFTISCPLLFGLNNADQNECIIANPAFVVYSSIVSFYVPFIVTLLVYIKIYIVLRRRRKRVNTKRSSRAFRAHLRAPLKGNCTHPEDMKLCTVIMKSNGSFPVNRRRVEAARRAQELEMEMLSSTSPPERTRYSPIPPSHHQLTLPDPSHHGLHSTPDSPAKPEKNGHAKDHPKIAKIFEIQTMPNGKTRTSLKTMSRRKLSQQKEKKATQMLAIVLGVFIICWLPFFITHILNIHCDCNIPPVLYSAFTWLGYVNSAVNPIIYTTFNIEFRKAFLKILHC
- experiment: BRET-based G protein dissociation assay
endpoint.name: EC50

Entry CCN(CC)C(=O)[C@@H]1C=C2c3cccc4[nH]c(Br)c(c34)C[C@H]2N(C)C1 has what EC50?
0.35 nM

Would you mind doing CCN(CC)C(=O)[C@@H]1C=C2c3cccc4[nH]cc(c34)C[C@H]2N(C)C1 [LSD, lysergic acid diethylamide, reference compound] as well?
2.17 nM

====

- target.system: Beta 2 adrenergic receptor (Homo sapiens)
- Sequence (P07550 whole entry): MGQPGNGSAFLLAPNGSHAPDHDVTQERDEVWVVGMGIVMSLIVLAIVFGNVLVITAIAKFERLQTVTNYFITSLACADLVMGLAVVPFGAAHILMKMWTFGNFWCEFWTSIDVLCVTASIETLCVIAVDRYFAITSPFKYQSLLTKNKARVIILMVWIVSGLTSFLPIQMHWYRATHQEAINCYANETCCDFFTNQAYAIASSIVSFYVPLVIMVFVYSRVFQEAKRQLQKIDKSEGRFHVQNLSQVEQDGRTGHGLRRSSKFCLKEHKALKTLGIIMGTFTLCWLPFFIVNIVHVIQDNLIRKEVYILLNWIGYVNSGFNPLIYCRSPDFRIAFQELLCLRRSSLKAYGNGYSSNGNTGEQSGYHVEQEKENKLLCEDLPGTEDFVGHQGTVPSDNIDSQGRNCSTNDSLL
- experiment: Functional assay in HEK-293 cells (cAMP)
endpoint.name: pIC50
Convention used: pIC50 is expressed as -log10 of the molar concentration.

# get_value(readout='pIC50', item= CCN(CC)C(=O)[C@@H]1C=C2c3cccc4[nH]c(Br)c(c34)C[C@H]2N(C)C1 )
6.44

====

- target.system: Serotonin 1A receptor (5-HT1AR) (Homo sapiens, UniProt P08908)
- Sequence (P08908 1-422): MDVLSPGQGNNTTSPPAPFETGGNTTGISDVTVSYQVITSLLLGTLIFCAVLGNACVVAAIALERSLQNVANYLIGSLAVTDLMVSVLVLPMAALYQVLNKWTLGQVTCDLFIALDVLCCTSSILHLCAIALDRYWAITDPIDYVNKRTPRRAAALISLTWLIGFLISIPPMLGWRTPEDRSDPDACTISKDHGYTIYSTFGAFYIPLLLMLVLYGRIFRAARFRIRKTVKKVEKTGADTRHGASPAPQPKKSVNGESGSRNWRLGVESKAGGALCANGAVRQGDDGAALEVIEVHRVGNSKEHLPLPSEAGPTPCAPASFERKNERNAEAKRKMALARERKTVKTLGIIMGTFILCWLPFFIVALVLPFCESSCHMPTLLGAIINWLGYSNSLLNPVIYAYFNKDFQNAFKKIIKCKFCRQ
endpoint.name: pKi
In textbook form, pKi equals minus log to base ten of the concentration in mol/L.

API: value(readout= pKi, system= Serotonin 1A receptor (5-HT1AR) (Homo sapiens, UniProt P08908), query= CCN(CC)C(=O)[C@@H]1C=C2c3cccc4[nH]c(Br)c(c34)C[C@H]2N(C)C1 [E559] )
8.03

The values you see were collected from patent US12331051B2.
